tested on: human apolipoprotein B mRNA; test: Inhibition of human apolipoprotein B mRNA levels in HepG2 cells, quantitative real-time PCR; format: cell-based; conditions: HepG2 cells treated with 150 nM of compound; averages from two experiments; quantitative real-time PCR
In the oligonucleotide strings, read from the 5' end, every base follows the letter of its sugar. An asterisk marks phosphorothioate; unmarked linkages are phosphodiester. Other units and linkages are bracketed, terminal groups are in braces. A string of capitals states the bases alone. e = 2'-O-(2-methoxyethyl) (MOE); [5mC] = 5-methylcytosine; d = 2'-deoxy (DNA)
Label true for high-side % INHIB (inhibition of human apolipoprotein B mRNA levels) (at or above 70%) and false for low-side % INHIB (inhibition of human apolipoprotein B mRNA levels) (below it).

Please review the following examples before continuing.
{"columns": ["substance", "class"],
 "data": [
  ["281644 (e[5mC]*eT*eG*eT*e[5mC]*dT*d[5mC]*d[5mC]*dT*dA*d[5mC]*d[5mC]*dA*dA*dT*eG*e[5mC]*eT*eG*eG; antisense) [compound 281644]", "false"],
  ["281648 (eG*e[5mC]*eA*eG*eG*dT*d[5mC]*d[5mC]*dA*dG*dT*dT*d[5mC]*dA*dT*eA*eT*eG*eT*eG; antisense) [compound 281648]", "true"],
  ["270990 (antisense e[5mC]*e[5mC]*e[5mC]*eT*e[5mC]*dT*dT*dG*dA*dT*dG*dT*dT*d[5mC]*dA*eG*eG*eA*eT*eG) [compound 270990]", "false"]
]}

Lab note: next substance to report on.
Can 281619 (antisense e[5mC]*eT*e[5mC]*eT*e[5mC]*d[5mC]*dA*dT*dT*dG*dA*dG*d[5mC]*d[5mC]*dG*eG*e[5mC]*e[5mC]*eA*eG) [compound 281619] be said to have % INHIB (inhibition of human apolipoprotein B mRNA levels) at or above 70%?
true

###

test system: human apolipoprotein B mRNA; assay: Inhibition of human apolipoprotein B mRNA levels in HepG2 cells, quantitative real-time PCR; assay type: cell-based; settings: HepG2 cells; 10 nM; 24 hour (Table 41)
e = 2'-O-(2-methoxyethyl) (MOE); d = 2'-deoxy (DNA)
attribute-measured: % Change in apolipoprotein B mRNA expression

Form field, % Change in apolipoprotein B mRNA expression with human apolipoprotein B mRNA, item 332782 (antisense TCAGTCTGCTTCGC; all phosphorothioate, sugars by position and methylation of C not given here; 2'-MOE wings flank a DNA gap) [compound 332782] : −16%

Form field, % Change in apolipoprotein B mRNA expression with human apolipoprotein B mRNA, item 332777 (antisense GCCTCAGTCTGCTTCGCA; sugars from the 5' end e5 d10 e3, all phosphorothioate, methylation of C not given here) [compound 332777] : −27%

Form field, % Change in apolipoprotein B mRNA expression with human apolipoprotein B mRNA, item 332785 (antisense GCTTCGCACC; linkages s4 o1 s4 (s phosphorothioate, o phosphodiester), sugars by position and methylation of C not given here; 2'-MOE wings flank a DNA gap) [compound 332785] : +5%

Form field, % Change in apolipoprotein B mRNA expression with human apolipoprotein B mRNA, item 332781 (antisense CTCAGTCTGCTTCGCA; sugars from the 5' end e3 d10 e3, all phosphorothioate, methylation of C not given here) [compound 332781] : −9%

###

system: rabbit apolipoprotein B mRNA; experiment: Inhibition of rabbit apolipoprotein B mRNA levels in primary rabbit hepatocytes, real-time PCR; type: cell-based; conditions: 10 nM, averages from two experiments
In the oligonucleotide strings, read from the 5' end, every base follows the letter of its sugar. An asterisk marks phosphorothioate; unmarked linkages are phosphodiester. Other units and linkages are bracketed, terminal groups are in braces. A string of capitals states the bases alone. e = 2'-O-(2-methoxyethyl) (MOE); [5mC] = 5-methylcytosine; d = 2'-deoxy (DNA)
Entries annotated with measured Percent Inhibition of rabbit apolipoprotein B mRNA levels
The figure you give is taken to be in %; do not add the unit.

Recorded Percent Inhibition of rabbit apolipoprotein B mRNA levels (substance 233183 (antisense e[5mC]*eA*eG*eT*eG*dT*dA*dA*dT*dG*dA*dT*d[5mC]*dG*dT*eT*eG*eA*eT*eT) [compound 233183] ): 30

###

system: human apolipoprotein B mRNA; assay: Inhibition of human apolipoprotein B mRNA levels in HepG2 cells, quantitative real-time PCR; format: cell-based; details: Table 1; HepG2 cells, 150 nM; averages from two experiments
In the oligonucleotide strings, read from the 5' end, every base follows the letter of its sugar. An asterisk marks phosphorothioate; unmarked linkages are phosphodiester. Other units and linkages are bracketed, terminal groups are in braces. A string of capitals states the bases alone. e = 2'-O-(2-methoxyethyl) (MOE); [5mC] = 5-methylcytosine; d = 2'-deoxy (DNA)
Entries annotated with measured % INHIB
The figure you give is taken to be in %; do not add the unit.

Worked cases, % INHIB given:
{"columns": ["substance", "target-or-test-system", "attribute-measured", "readout-number"],
 "data": [
  ["147780 (antisense e[5mC]*e[5mC]*eG*e[5mC]*eA*dG*dG*dT*d[5mC]*d[5mC]*d[5mC]*dG*dG*dT*dG*eG*eG*eA*eA*eT) [compound 147780]", "human apolipoprotein B mRNA", "% INHIB", 40],
  ["147825 (antisense eA*eG*eA*eA*eG*d[5mC]*dT*dG*d[5mC]*d[5mC]*dT*d[5mC]*dT*dT*d[5mC]*eT*eT*e[5mC]*e[5mC]*e[5mC]) [compound 147825]", "human apolipoprotein B mRNA", "% INHIB", 72],
  ["147809 (antisense e[5mC]*e[5mC]*e[5mC]*eA*eG*dT*dG*dA*dT*dA*dG*d[5mC]*dT*d[5mC]*dT*eG*eT*eG*eA*eG) [compound 147809]", "human apolipoprotein B mRNA", "% INHIB", 60]
]}

Now for the substance whose % INHIB we want.
Recorded % INHIB (substance 147785 (antisense eG*e[5mC]*e[5mC]*e[5mC]*eG*d[5mC]*d[5mC]*dA*dG*d[5mC]*dA*dG*d[5mC]*dA*dG*e[5mC]*eA*eG*e[5mC]*eA) [compound 147785] ): 29

###

Entries annotated with measured % INHIB (inhibition of human apolipoprotein B mRNA levels)
system: human apolipoprotein B mRNA; experiment: Inhibition of human apolipoprotein B mRNA levels in HepG2 cells, quantitative real-time PCR; format: cell-based; settings: HepG2 cells treated with 150 nM of compound; averages from two experiments; quantitative real-time PCR
In the oligonucleotide strings, read from the 5' end, every base follows the letter of its sugar. An asterisk marks phosphorothioate; unmarked linkages are phosphodiester. Other units and linkages are bracketed, terminal groups are in braces. A string of capitals states the bases alone. e = 2'-O-(2-methoxyethyl) (MOE); [5mC] = 5-methylcytosine; d = 2'-deoxy (DNA)
The figure you give is taken to be in %; do not add the unit.

Worked cases, % INHIB (inhibition of human apolipoprotein B mRNA levels) given:
{"columns": ["substance", "readout-number"],
 "data": [
  ["281588 (eT*e[5mC]*eT*eT*e[5mC]*dA*dG*dG*dA*dT*dG*dA*dA*dG*d[5mC]*eT*eG*e[5mC]*eA*eG; antisense) [compound 281588]", 80],
  ["271032 (e[5mC]*eT*eG*eT*eG*dG*d[5mC]*dT*dA*dA*d[5mC]*dT*dT*d[5mC]*dA*eA*eT*e[5mC]*e[5mC]*e[5mC]; antisense) [compound 271032]", 22]
]}

Recorded % INHIB (inhibition of human apolipoprotein B mRNA levels) (substance 271045 (eG*eT*e[5mC]*eA*eA*d[5mC]*dA*dG*dT*dT*d[5mC]*d[5mC]*dT*dG*dG*eT*eA*e[5mC]*eA*eG; antisense) [compound 271045] ): 19

Recorded % INHIB (inhibition of human apolipoprotein B mRNA levels) (substance 281607 (antisense e[5mC]*e[5mC]*eA*eG*eT*dT*d[5mC]*dA*dG*d[5mC]*d[5mC]*dT*dG*d[5mC]*dA*eT*eG*eT*eT*eG) [compound 281607] ): 84

Recorded % INHIB (inhibition of human apolipoprotein B mRNA levels) (substance 281621 (antisense e[5mC]*eA*eG*eT*eG*d[5mC]*d[5mC]*dT*dA*dA*dG*dA*dT*dG*dT*e[5mC]*eA*eG*e[5mC]*eA) [compound 281621] ): 53

Recorded % INHIB (inhibition of human apolipoprotein B mRNA levels) (substance 281595 (eG*eA*eT*eG*eT*dG*dG*dA*dT*dT*dT*dG*dG*dT*dG*e[5mC]*eT*e[5mC]*eT*e[5mC]; antisense) [compound 281595] ): 76

Recorded % INHIB (inhibition of human apolipoprotein B mRNA levels) (substance 281601 (antisense eA*eG*e[5mC]*e[5mC]*eT*dG*dG*dA*dT*dG*dG*d[5mC]*dA*dG*d[5mC]*eT*eT*eT*e[5mC]*eT) [compound 281601] ): 83

Recorded % INHIB (inhibition of human apolipoprotein B mRNA levels) (substance 281602 (antisense eG*eT*e[5mC]*eT*eG*dA*dA*dG*dA*dA*dG*dA*dA*d[5mC]*d[5mC]*eT*e[5mC]*e[5mC]*eT*eG) [compound 281602] ): 84

Recorded % INHIB (inhibition of human apolipoprotein B mRNA levels) (substance 301020 (eG*eG*e[5mC]*eG*eG*dG*d[5mC]*dT*d[5mC]*d[5mC]*dT*d[5mC]*dA*dG*d[5mC]*eG*eG*e[5mC]*eA*eG; antisense) [compound 301020] ): 85

Recorded % INHIB (inhibition of human apolipoprotein B mRNA levels) (substance 301034 (eT*eG*e[5mC]*eT*eT*dA*dT*dA*dG*dT*d[5mC]*dT*dA*d[5mC]*dT*eG*e[5mC]*e[5mC]*eT*eA; antisense) [compound 301034] ): 88
